target: hP2X4 (human purinergic P2X receptor subtype 4) (Homo sapiens, UniProt Q99571); assay: FLIPR assay of intracellular calcium increase induced by activation of hP2X4 expressed in HEK293 cells (agonist BZ-ATP 2.5 μM); type: cell-based; conditions: HEK293 cells stably expressing hP2X4, FLIPR, class symbols, read-out: P2X4 IC50
Sequence (Q99571 1-404 isoform Q99571-2): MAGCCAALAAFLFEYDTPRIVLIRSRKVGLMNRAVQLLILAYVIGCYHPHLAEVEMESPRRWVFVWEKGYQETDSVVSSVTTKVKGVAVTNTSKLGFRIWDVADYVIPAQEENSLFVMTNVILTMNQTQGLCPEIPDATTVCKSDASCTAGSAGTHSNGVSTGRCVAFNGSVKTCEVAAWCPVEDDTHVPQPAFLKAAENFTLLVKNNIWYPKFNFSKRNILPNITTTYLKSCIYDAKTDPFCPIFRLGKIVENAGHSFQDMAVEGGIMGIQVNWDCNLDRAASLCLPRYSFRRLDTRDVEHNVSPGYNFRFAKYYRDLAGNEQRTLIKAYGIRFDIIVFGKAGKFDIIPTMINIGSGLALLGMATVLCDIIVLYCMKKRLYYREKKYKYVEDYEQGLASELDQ
For each of the compounds below, state its IC50.

Readout IC50 for NS(=O)(=O)c1cc(NC(=O)Cc2ccccc2Cl)cc2c1cnn2CC1CCOCC1 [Compound 141A] , test system hP2X4 (human purinergic P2X receptor subtype 4) (Homo sapiens, UniProt Q99571), was 50 to 200 nM

Readout IC50 for NS(=O)(=O)c1cc(NC(=O)Cc2ccccc2Cl)cc2c1c(Cl)nn2-c1ccc(F)cc1 , test system hP2X4 (human purinergic P2X receptor subtype 4) (Homo sapiens, UniProt Q99571), was 200 to 5000 nM

Readout IC50 for NS(=O)(=O)c1cc(NC(=O)Cc2ccccc2Cl)cc2nn(CC3CCCO3)cc12 (stereo not shown) , test system hP2X4 (human purinergic P2X receptor subtype 4) (Homo sapiens, UniProt Q99571), was 50 to 200 nM

Readout IC50 for NS(=O)(=O)c1cc(NC(=O)Cc2ccccc2Cl)cc2c1cnn2CC1CCCC1 , test system hP2X4 (human purinergic P2X receptor subtype 4) (Homo sapiens, UniProt Q99571), was ≤ 10 nM

Readout IC50 for CN(C)c1cccc(Cn2cc3c(S(N)(=O)=O)cc(NC(=O)Cc4ccccc4Cl)cc3n2)c1 , test system hP2X4 (human purinergic P2X receptor subtype 4) (Homo sapiens, UniProt Q99571), was 10 to 50 nM

Readout IC50 for COc1ccccc1Cn1ncc2c(S(N)(=O)=O)cc(NC(=O)Cc3ccccc3Cl)cc21 , test system hP2X4 (human purinergic P2X receptor subtype 4) (Homo sapiens, UniProt Q99571), was 10 to 50 nM

Readout IC50 for COc1ccc(Cn2ncc3c(S(N)(=O)=O)cc(NC(=O)Cc4ccccc4Cl)cc32)c(F)c1 , test system hP2X4 (human purinergic P2X receptor subtype 4) (Homo sapiens, UniProt Q99571), was ≤ 10 nM

Readout IC50 for CC(c1ccc(F)cc1)n1cc2c(S(N)(=O)=O)cc(NC(=O)Cc3ccccc3Cl)cc2n1 (stereo not shown) , test system hP2X4 (human purinergic P2X receptor subtype 4) (Homo sapiens, UniProt Q99571), was 10 to 50 nM

Readout IC50 for NS(=O)(=O)c1cc(NC(=O)Cc2ncccc2Cl)cc2nn(C(F)F)cc12 , test system hP2X4 (human purinergic P2X receptor subtype 4) (Homo sapiens, UniProt Q99571), was 200 to 5000 nM

Readout IC50 for NS(=O)(=O)c1cc(NC(=O)Cc2ccccc2Cl)cc2nn(CCN3CCOCC3)cc12 , test system hP2X4 (human purinergic P2X receptor subtype 4) (Homo sapiens, UniProt Q99571), was 200 to 5000 nM

###

experiment: In vitro metabolic stability, liver microsome incubation (rat); format: in vitro ADME; conditions: rat, liver microsomes; 1 mg/mL liver microsome protein, 37° C.; read-out: T1/2 in rat liver microsome min
observable: half-life (h)
Dear colleague, please return just the value in h, with no unit written.

The recorded half-life for NS(=O)(=O)c1cc(NC(=O)Cc2ccccc2Cl)cc2nn(CC3CCOC3)cc12 (stereo not drawn) [Compound 110] is 1.15

The recorded half-life for NS(=O)(=O)c1cc(NC(=O)Cc2ccccc2Cl)cc2c1cnn2CC1CCC1 [Compound 24-B] is 0.768

The recorded half-life for NS(=O)(=O)c1cc(NC(=O)Cc2ccccc2Cl)cc2nn(C(F)F)cc12 [Compound 1] is 6.03
